assay: Toxicokinetics of PNA5 in Beagle dog plasma; settings: both, Beagle, dog, plasma, sc, 5 mg/kg/day, Tmax, dogs, plasma, s.c. 5 mg/kg/day, day 28, sexes combined, table: average (range); text b115: median
Peptide text beside a SMILES is read from it. * marks the point of attachment. βGlc = OC[C@H]1O[C@@H](*)[C@H](O)[C@@H](O)[C@@H]1O
Measured Property: Tmax

Can you look up the measured Tmax of CC[C@H](C)[C@H](NC(=O)[C@H](Cc1ccc(O)cc1)NC(=O)[C@@H](NC(=O)[C@H](CCCNC(=N)N)NC(=O)[C@@H](N)CC(=O)O)C(C)C)C(=O)N[C@@H](Cc1c[nH]cn1)C(=O)N[C@@H](CO[C@@H]1O[C@H](CO)[C@@H](O)[C@H](O)[C@H]1O)C(N)=O [PNA5, Ang-1–6-Ser-O-Glu-NH2] (H-DRVYIHS(βGlc)-NH2) for me?
10 min

###

test: Toxicokinetics of PNA5 in Sprague Dawley rat plasma; conditions: both, Sprague Dawley, rat, plasma, sc, 40 mg/kg/day, Cmax, Sprague Dawley rats, plasma, s.c. once daily 40 mg/kg/day, day 1, sexes combined, mean ± SD, n = 6, UHPLC-MS/MS, noncompartmental
Peptide text beside a SMILES is read from it. * marks the point of attachment. βGlc = OC[C@H]1O[C@@H](*)[C@H](O)[C@@H](O)[C@@H]1O
Measured Property: Cmax
Field note: include the unit after the figure.

Any idea what Cmax was measured for CC[C@H](C)[C@H](NC(=O)[C@H](Cc1ccc(O)cc1)NC(=O)[C@@H](NC(=O)[C@H](CCCNC(=N)N)NC(=O)[C@@H](N)CC(=O)O)C(C)C)C(=O)N[C@@H](Cc1c[nH]cn1)C(=O)N[C@@H](CO[C@@H]1O[C@H](CO)[C@@H](O)[C@H](O)[C@H]1O)C(N)=O [PNA5, Ang-1–6-Ser-O-Glu-NH2] (H-DRVYIHS(βGlc)-NH2) ?
40.8 ng/mL

###

assay: Toxicokinetics of PNA5 in Beagle dog plasma; details: both, Beagle, dog, plasma, sc, 5 mg/kg/day, Half-life, dogs, plasma, s.c. 5 mg/kg/day, day 1, sexes combined, mean ± SD, n = 6, Ln(2)/Kel
Peptide text beside a SMILES is read from it. * marks the point of attachment. βGlc = OC[C@H]1O[C@@H](*)[C@H](O)[C@@H](O)[C@@H]1O
Measured Property: half-life (min)
State the answer as a number, implicitly in min.

// returns reported half-life for input CC[C@H](C)[C@H](NC(=O)[C@H](Cc1ccc(O)cc1)NC(=O)[C@@H](NC(=O)[C@H](CCCNC(=N)N)NC(=O)[C@@H](N)CC(=O)O)C(C)C)C(=O)N[C@@H](Cc1c[nH]cn1)C(=O)N[C@@H](CO[C@@H]1O[C@H](CO)[C@@H](O)[C@H](O)[C@H]1O)C(N)=O [PNA5, Ang-1–6-Ser-O-Glu-NH2] (H-DRVYIHS(βGlc)-NH2)
30

###

test: Toxicokinetics of PNA5 in Sprague Dawley rat plasma; conditions: both, Sprague Dawley, rat, plasma, sc, 40 mg/kg/day, Half-life, rats, plasma, s.c. 40 mg/kg/day, day 1, sexes combined, mean ± SD, n = 6, Ln(2)/Kel
Peptide text beside a SMILES is read from it. * marks the point of attachment. βGlc = OC[C@H]1O[C@@H](*)[C@H](O)[C@@H](O)[C@@H]1O
Measured Property: half-life (min)
Quick reminder: number only, in min, skip the unit.

// lookup half-life for CC[C@H](C)[C@H](NC(=O)[C@H](Cc1ccc(O)cc1)NC(=O)[C@@H](NC(=O)[C@H](CCCNC(=N)N)NC(=O)[C@@H](N)CC(=O)O)C(C)C)C(=O)N[C@@H](Cc1c[nH]cn1)C(=O)N[C@@H](CO[C@@H]1O[C@H](CO)[C@@H](O)[C@H](O)[C@H]1O)C(N)=O [PNA5, Ang-1–6-Ser-O-Glu-NH2] (H-DRVYIHS(βGlc)-NH2)
19.8

###

test: Toxicokinetics of PNA5 in Beagle dog plasma; details: both, Beagle, dog, plasma, sc, 1 mg/kg/day, Half-life, dogs, plasma, s.c. 1 mg/kg/day, day 1, sexes combined, mean ± SD, n = 6, Ln(2)/Kel
Peptide text beside a SMILES is read from it. * marks the point of attachment. βGlc = OC[C@H]1O[C@@H](*)[C@H](O)[C@@H](O)[C@@H]1O
Measured Property: half-life (min)
Express the result in min but write the number alone.

Returns the measured half-life for the input compound. Input: CC[C@H](C)[C@H](NC(=O)[C@H](Cc1ccc(O)cc1)NC(=O)[C@@H](NC(=O)[C@H](CCCNC(=N)N)NC(=O)[C@@H](N)CC(=O)O)C(C)C)C(=O)N[C@@H](Cc1c[nH]cn1)C(=O)N[C@@H](CO[C@@H]1O[C@H](CO)[C@@H](O)[C@H](O)[C@H]1O)C(N)=O [PNA5, Ang-1–6-Ser-O-Glu-NH2] (H-DRVYIHS(βGlc)-NH2)
17.4

###

assay: Toxicokinetics of PNA5 in Beagle dog plasma; conditions: both, Beagle, dog, plasma, sc, 1 mg/kg/day, Half-life, dogs, plasma, s.c. 1 mg/kg/day, day 28, sexes combined, mean ± SD, n = 6, Ln(2)/Kel
Peptide text beside a SMILES is read from it. * marks the point of attachment. βGlc = OC[C@H]1O[C@@H](*)[C@H](O)[C@@H](O)[C@@H]1O
Measured Property: half-life (min)
// return numeric value only (unit: min, not printed)

Record request: half-life value, item CC[C@H](C)[C@H](NC(=O)[C@H](Cc1ccc(O)cc1)NC(=O)[C@@H](NC(=O)[C@H](CCCNC(=N)N)NC(=O)[C@@H](N)CC(=O)O)C(C)C)C(=O)N[C@@H](Cc1c[nH]cn1)C(=O)N[C@@H](CO[C@@H]1O[C@H](CO)[C@@H](O)[C@H](O)[C@H]1O)C(N)=O [PNA5, Ang-1–6-Ser-O-Glu-NH2] (H-DRVYIHS(βGlc)-NH2)
15.6

###

experiment: Toxicokinetics of PNA5 in Sprague Dawley rat plasma; conditions: both, Sprague Dawley, rat, plasma, sc, 1 mg/kg/day, Half-life, rats, plasma, s.c. 1 mg/kg/day, day 28, sexes combined, mean ± SD, n = 6, Ln(2)/Kel
Peptide text beside a SMILES is read from it. * marks the point of attachment. βGlc = OC[C@H]1O[C@@H](*)[C@H](O)[C@@H](O)[C@@H]1O
Measured Property: half-life (min)
# value in min; strip the unit string

What value of half-life has been recorded for this entry: CC[C@H](C)[C@H](NC(=O)[C@H](Cc1ccc(O)cc1)NC(=O)[C@@H](NC(=O)[C@H](CCCNC(=N)N)NC(=O)[C@@H](N)CC(=O)O)C(C)C)C(=O)N[C@@H](Cc1c[nH]cn1)C(=O)N[C@@H](CO[C@@H]1O[C@H](CO)[C@@H](O)[C@H](O)[C@H]1O)C(N)=O [PNA5, Ang-1–6-Ser-O-Glu-NH2] (H-DRVYIHS(βGlc)-NH2)
30.6

###

assay: Toxicokinetics of PNA5 in Beagle dog plasma; settings: both, Beagle, dog, plasma, sc, 20 mg/kg/day, Cmax, Beagle dogs, plasma, s.c. once daily 20 mg/kg/day, day 1, sexes combined, mean ± SD, n = 10, UHPLC-MS/MS, noncompartmental
Peptide text beside a SMILES is read from it. * marks the point of attachment. βGlc = OC[C@H]1O[C@@H](*)[C@H](O)[C@@H](O)[C@@H]1O
Measured Property: Cmax (ng/mL)
Provide the reading as a plain figure in ng/mL.

Any idea what its Cmax is? The compound is CC[C@H](C)[C@H](NC(=O)[C@H](Cc1ccc(O)cc1)NC(=O)[C@@H](NC(=O)[C@H](CCCNC(=N)N)NC(=O)[C@@H](N)CC(=O)O)C(C)C)C(=O)N[C@@H](Cc1c[nH]cn1)C(=O)N[C@@H](CO[C@@H]1O[C@H](CO)[C@@H](O)[C@H](O)[C@H]1O)C(N)=O [PNA5, Ang-1–6-Ser-O-Glu-NH2] (H-DRVYIHS(βGlc)-NH2)
1440

###

test: Toxicokinetics of PNA5 in Beagle dog plasma; conditions: both, Beagle, dog, plasma, sc, 5 mg/kg/day, Tmax, dogs, plasma, s.c. 5 mg/kg/day, day 1, sexes combined, table: average (range); text b115: median
Peptide text beside a SMILES is read from it. * marks the point of attachment. βGlc = OC[C@H]1O[C@@H](*)[C@H](O)[C@@H](O)[C@@H]1O
Measured Property: Tmax
State the value, then name its unit.

Returns the measured Tmax for the input compound. Input: CC[C@H](C)[C@H](NC(=O)[C@H](Cc1ccc(O)cc1)NC(=O)[C@@H](NC(=O)[C@H](CCCNC(=N)N)NC(=O)[C@@H](N)CC(=O)O)C(C)C)C(=O)N[C@@H](Cc1c[nH]cn1)C(=O)N[C@@H](CO[C@@H]1O[C@H](CO)[C@@H](O)[C@H](O)[C@H]1O)C(N)=O [PNA5, Ang-1–6-Ser-O-Glu-NH2] (H-DRVYIHS(βGlc)-NH2)
15 min

Origin of the recorded values: paper PMC12612990
